# Tested on: PDC 899932-113-R3-J6 complex spheroid viability
# protocol-summary: Anticancer human tumor 899932-113-R3-J6-PDC patient-derived melanoma cell line growth inhibition [RAS]
# experimental-context: second compound 0.03 µM; first compound 1 µM; hits give low values
Property: viability, T/C; scope: individual molecules
observable: viability, T/C (%)

molecule	observable	result-number
CCC(CC)c1cc(NC2CCC(N)C2)n2nccc2n1 (configuration not stated) + CCn1c(-c2cc(N3CCN(C)CC3)cnc2C(C)OC)c2c3cc(ccc31)-c1csc(n1)CC(NC(=O)C1CC1C)C(=O)N1CCCC(N1)C(=O)OCC(C)(C)C2	viability, T/C	2.67
CCN1CCN(Cc2ccc(Nc3ncc(F)c(-c4cc(F)c5nc(C)n(C(C)C)c5c4)n3)nc2)CC1 + CCn1c(-c2cc(N3CCN(C)CC3)cnc2C(C)OC)c2c3cc(ccc31)-c1csc(n1)CC(NC(=O)C1CC1C)C(=O)N1CCCC(N1)C(=O)OCC(C)(C)C2	viability, T/C	2.94

###

# Tested on: PDC 899932-113-R3-J6 complex spheroid viability
# protocol-summary: Anticancer human tumor 899932-113-R3-J6-PDC cell line growth inhibition [RAS];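 also: spheroids exposed to agents for seven days before readout; 100% = DMSO vehicle control wells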
# experimental-context: second compound 0.01 µM; first compound 0.316 µM; hits give low values

compound	target-entity	viability, T/C / %
O=C(c1ccc(F)c(F)c1Nc1ccc(I)cc1F)N1CC(O)([C@@H]2CCCCN2)C1 + C=CC(=O)N1CCN(c2nc(OCC3CCCN3C)nc3c(F)c(-c4nc(N)cc(C)c4C(F)(F)F)c(Cl)cc23)C(C)C1	PDC 899932-113-R3-J6 complex spheroid viability	1.9
Nc1ccn(C2OC(CO)C(O)C2(F)F)c(=O)n1 (centres undefined) + C=CC(=O)N1CCN(c2nc(OCC3CCCN3C)nc3c(F)c(-c4nc(N)cc(C)c4C(F)(F)F)c(Cl)cc23)C(C)C1	PDC 899932-113-R3-J6 complex spheroid viability	24.9
C=CC(=O)Nc1cc(Nc2nccc(-c3cn(C)c4ccccc34)n2)c(OC)cc1N(C)CCN(C)C + C=CC(=O)N1CCN(c2nc(OCC3CCCN3C)nc3c(F)c(-c4nc(N)cc(C)c4C(F)(F)F)c(Cl)cc23)C(C)C1	PDC 899932-113-R3-J6 complex spheroid viability	101
NC1c2ccccc2OC12CCN(c1cnc3c(N4CCCc5ncccc54)n[nH]c3n1)CC2 (centres undefined) + C=CC(=O)N1CCN(c2nc(OCC3CCCN3C)nc3c(F)c(-c4nc(N)cc(C)c4C(F)(F)F)c(Cl)cc23)C(C)C1	PDC 899932-113-R3-J6 complex spheroid viability	115
CCC(CC)c1cc(NC2CCC(N)C2)n2nccc2n1 (centres undefined) + C=CC(=O)N1CCN(c2nc(OCC3CCCN3C)nc3c(F)c(-c4nc(N)cc(C)c4C(F)(F)F)c(Cl)cc23)C(C)C1	PDC 899932-113-R3-J6 complex spheroid viability	98.1
CC1(O)CCCC1n1c(=O)c(C(F)F)cc2cnc(NC3CCN(S(C)(=O)=O)CC3)nc21 (centres undefined) + C=CC(=O)N1CCN(c2nc(OCC3CCCN3C)nc3c(F)c(-c4nc(N)cc(C)c4C(F)(F)F)c(Cl)cc23)C(C)C1	PDC 899932-113-R3-J6 complex spheroid viability	71.1
C[C@@H](NC(=O)c1ncnc(N)c1Cl)c1ncc(C(=O)Nc2cc(C(F)(F)F)c(Cl)cn2)s1 + C=CC(=O)N1CCN(c2nc(OCC3CCCN3C)nc3c(F)c(-c4nc(N)cc(C)c4C(F)(F)F)c(Cl)cc23)C(C)C1	PDC 899932-113-R3-J6 complex spheroid viability	153
CCN1CCN(Cc2ccc(Nc3ncc(F)c(-c4cc(F)c5nc(C)n(C(C)C)c5c4)n3)nc2)CC1 + C=CC(=O)N1CCN(c2nc(OCC3CCCN3C)nc3c(F)c(-c4nc(N)cc(C)c4C(F)(F)F)c(Cl)cc23)C(C)C1	PDC 899932-113-R3-J6 complex spheroid viability	63
CC(=O)OC12COC1CC(O)C1(C)C(=O)C(O)C3=C(C)C(OC(=O)C(O)C(NC(=O)OC(C)(C)C)c4ccccc4)CC(O)(C(OC(=O)c4ccccc4)C21)C3(C)C (centres undefined) + C=CC(=O)N1CCN(c2nc(OCC3CCCN3C)nc3c(F)c(-c4nc(N)cc(C)c4C(F)(F)F)c(Cl)cc23)C(C)C1	PDC 899932-113-R3-J6 complex spheroid viability	39.6

###

This listing pairs compounds with measured viability, T/C.
# System: PDC 899932-113-R3-J6 complex spheroid viability
# protocol-summary: Anticancer human tumor 899932-113-R3-J6-PDC cell line growth inhibition [RAS];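 also: spheroids exposed to agents for seven days before readout; 100% = DMSO vehicle control wells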
# experimental-context: second compound 0.3 µM; first compound 10 µM; hits give low values

compound	target-entity	viability, T/C
CC(=O)OC12COC1CC(O)C1(C)C(=O)C(O)C3=C(C)C(OC(=O)C(O)C(NC(=O)OC(C)(C)C)c4ccccc4)CC(O)(C(OC(=O)c4ccccc4)C21)C3(C)C (centres undefined) + CCn1c(-c2cccnc2C(C)OC)c2c3cc(ccc31)N1CCOC(CC(NC(=O)C(C(C)C)N(C)C(=O)C3(F)CCN(C(=O)C#CC(C)(C)N(C)C)CC3)C(=O)N3CCCC(N3)C(=O)OCC(C)(C)C2)C1	PDC 899932-113-R3-J6 complex spheroid viability	63.1%
CCC(CC)c1cc(NC2CCC(N)C2)n2nccc2n1 (centres undefined) + CCn1c(-c2cccnc2C(C)OC)c2c3cc(ccc31)N1CCOC(CC(NC(=O)C(C(C)C)N(C)C(=O)C3(F)CCN(C(=O)C#CC(C)(C)N(C)C)CC3)C(=O)N3CCCC(N3)C(=O)OCC(C)(C)C2)C1	PDC 899932-113-R3-J6 complex spheroid viability	0.36%
CCC(CC)c1cc(NC2CCC(N)C2)n2nccc2n1 (centres undefined) + CCn1c(-c2cc(N3CCN(C)CC3)cnc2C(C)OC)c2c3cc(ccc31)-c1csc(n1)CC(NC(=O)C1CC1C)C(=O)N1CCCC(N1)C(=O)OCC(C)(C)C2	PDC 899932-113-R3-J6 complex spheroid viability	0.89%
CC(C)NCC(C(=O)N1CCN(c2ncnc3c2C(C)CC3O)CC1)c1ccc(Cl)cc1 (centres undefined) + CCn1c(-c2cc(N3CCN(C)CC3)cnc2C(C)OC)c2c3cc(ccc31)-c1csc(n1)CC(NC(=O)C1CC1C)C(=O)N1CCCC(N1)C(=O)OCC(C)(C)C2	PDC 899932-113-R3-J6 complex spheroid viability	0.36%

###

# Tested on: PDC 899932-113-R3-J6 complex spheroid viability
# protocol-summary: Anticancer human tumor 899932-113-R3-J6-PDC cell line growth inhibition [RAS]; active = viability on the fitted dose curve at most 10% of control; inactive = the rest;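 also: spheroids exposed to agents for seven days before readout; 100% = DMSO vehicle control wells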
# experimental-context: second compound 0.3 µM; first compound 10 µM
Labels: active, inactive

molecule	class-name
NC1c2ccccc2OC12CCN(c1cnc3c(N4CCCc5ncccc54)n[nH]c3n1)CC2 (centres undefined) + CCn1c(-c2cc(N3CCN(C)CC3)cnc2C(C)OC)c2c3cc(ccc31)-c1csc(n1)CC(NC(=O)C1CC1C)C(=O)N1CCCC(N1)C(=O)OCC(C)(C)C2	active
CC1(O)CCCC1n1c(=O)c(C(F)F)cc2cnc(NC3CCN(S(C)(=O)=O)CC3)nc21 (centres undefined) + CCn1c(-c2cc(N3CCN(C)CC3)cnc2C(C)OC)c2c3cc(ccc31)-c1csc(n1)CC(NC(=O)C1CC1C)C(=O)N1CCCC(N1)C(=O)OCC(C)(C)C2	active
CC(Nc1ccc2c(c1)OCCn1cc(N3C(=O)OCC3C(F)F)nc1-2)C(N)=O (centres undefined) + CCn1c(-c2cccnc2C(C)OC)c2c3cc(ccc31)N1CCOC(CC(NC(=O)C(C(C)C)N(C)C(=O)C3(F)CCN(C(=O)C#CC(C)(C)N(C)C)CC3)C(=O)N3CCCC(N3)C(=O)OCC(C)(C)C2)C1	inactive
C[C@@H](NC(=O)c1ncnc(N)c1Cl)c1ncc(C(=O)Nc2cc(C(F)(F)F)c(Cl)cn2)s1 + CCn1c(-c2cc(N3CCN(C)CC3)cnc2C(C)OC)c2c3cc(ccc31)-c1csc(n1)CC(NC(=O)C1CC1C)C(=O)N1CCCC(N1)C(=O)OCC(C)(C)C2	active

###

# Tested on: PDC 899932-113-R3-J6 complex spheroid viability
# protocol-summary: Anticancer human tumor 899932-113-R3-J6-PDC cell line growth inhibition [RAS];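 also: spheroids exposed to agents for seven days before readout; 100% = DMSO vehicle control wells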
# experimental-context: second compound 0.316 µM; first compound 1 µM; hits give low values
# reported viability, T/C; entries follow

compound	viability, T/C (%)
C=CC(=O)N1CCN(c2nc(OCC3CCCN3C)nc3c(F)c(-c4nc(N)cc(C)c4C(F)(F)F)c(Cl)cc23)C(C)C1 (stereo not drawn) + C#Cc1c(F)ccc2cc(O)cc(-c3ncc4c(N5CC6CCC(C5)N6)nc(OCC56CCCN5CC(F)C6)nc4c3F)c12	112
C[C@@H](NC(=O)c1ncnc(N)c1Cl)c1ncc(C(=O)Nc2cc(C(F)(F)F)c(Cl)cn2)s1 + C#Cc1c(F)ccc2cc(O)cc(-c3ncc4c(N5CC6CCC(C5)N6)nc(OCC56CCCN5CC(F)C6)nc4c3F)c12	140
CC(Nc1ccc2c(c1)OCCn1cc(N3C(=O)OCC3C(F)F)nc1-2)C(N)=O (stereo not drawn) + C=CC(=O)N1CCN(c2nc(OCC3CCCN3C)nc3c(F)c(-c4nc(N)cc(C)c4C(F)(F)F)c(Cl)cc23)C(C)C1	51.9
CCC(CC)c1cc(NC2CCC(N)C2)n2nccc2n1 (stereo not drawn) + C#Cc1c(F)ccc2cc(O)cc(-c3ncc4c(N5CC6CCC(C5)N6)nc(OCC56CCCN5CC(F)C6)nc4c3F)c12	88.3
CC(=O)OC12COC1CC(O)C1(C)C(=O)C(O)C3=C(C)C(OC(=O)C(O)C(NC(=O)OC(C)(C)C)c4ccccc4)CC(O)(C(OC(=O)c4ccccc4)C21)C3(C)C (stereo not drawn) + C#Cc1c(F)ccc2cc(O)cc(-c3ncc4c(N5CC6CCC(C5)N6)nc(OCC56CCCN5CC(F)C6)nc4c3F)c12	53.4
CC1(O)CCCC1n1c(=O)c(C(F)F)cc2cnc(NC3CCN(S(C)(=O)=O)CC3)nc21 (stereo not drawn) + C#Cc1c(F)ccc2cc(O)cc(-c3ncc4c(N5CC6CCC(C5)N6)nc(OCC56CCCN5CC(F)C6)nc4c3F)c12	65.3
Nc1ccn(C2OC(CO)C(O)C2(F)F)c(=O)n1 (stereo not drawn) + C#Cc1c(F)ccc2cc(O)cc(-c3ncc4c(N5CC6CCC(C5)N6)nc(OCC56CCCN5CC(F)C6)nc4c3F)c12	20.1
Cc1nc(N2CCC3(CC2)COC(C)C3N)c(CO)nc1Sc1ccnc(N)c1Cl (stereo not drawn) + C#Cc1c(F)ccc2cc(O)cc(-c3ncc4c(N5CC6CCC(C5)N6)nc(OCC56CCCN5CC(F)C6)nc4c3F)c12	118
CCN1CCN(Cc2ccc(Nc3ncc(F)c(-c4cc(F)c5nc(C)n(C(C)C)c5c4)n3)nc2)CC1 + C#Cc1c(F)ccc2cc(O)cc(-c3ncc4c(N5CC6CCC(C5)N6)nc(OCC56CCCN5CC(F)C6)nc4c3F)c12	26.5
CC(Nc1ccc2c(c1)OCCn1cc(N3C(=O)OCC3C(F)F)nc1-2)C(N)=O (stereo not drawn) + C#Cc1c(F)ccc2cc(O)cc(-c3ncc4c(N5CC6CCC(C5)N6)nc(OCC56CCCN5CC(F)C6)nc4c3F)c12	63.5
O=C(c1ccc(F)c(F)c1Nc1ccc(I)cc1F)N1CC(O)([C@@H]2CCCCN2)C1 + C#Cc1c(F)ccc2cc(O)cc(-c3ncc4c(N5CC6CCC(C5)N6)nc(OCC56CCCN5CC(F)C6)nc4c3F)c12	1.38
C=CC(=O)Nc1cc(Nc2nccc(-c3cn(C)c4ccccc34)n2)c(OC)cc1N(C)CCN(C)C + C=CC(=O)N1CCN(c2nc(OCC3CCCN3C)nc3c(F)c(-c4nc(N)cc(C)c4C(F)(F)F)c(Cl)cc23)C(C)C1	89.1
NC1c2ccccc2OC12CCN(c1cnc3c(N4CCCc5ncccc54)n[nH]c3n1)CC2 (stereo not drawn) + C#Cc1c(F)ccc2cc(O)cc(-c3ncc4c(N5CC6CCC(C5)N6)nc(OCC56CCCN5CC(F)C6)nc4c3F)c12	116
